- Test Summary: yeast display, Sf9 membrane polyspecificity reagent, FACS + sequencing; frameworks hold sequencing errors

- Biopolymer Sequence: "QVQLVESGGGLVQAGGSLRLSCAASGSTFNWYAMGWYRQAPGKERELVASIRISGGSTYYADSVKGRFTISRDNAKNTVYLQMNSLKPEDTAVYYCNAKLFIRWFTYDYLGQGTQVTVSS"
  polyreactivity (PSR sort gate): "low polyreactivity"
- Biopolymer Sequence: "QVQLVESGGGLVQAGGSLRLSCAASGRIFGTYAMGWYRQAPGKERELVAAISSSGTSTYYADSVKGRFTISRDNAKNTVYLQMNSLKPEDTAVYYCAADTVSFSILYDYWGQGTQVTVSS"
  polyreactivity (PSR sort gate): "low polyreactivity"
- Biopolymer Sequence: "QVQLVESGGGIVQAGASLRLSCSASGFTQYPYTMGWNRHAPGKESELVAAITSSGATTYYADSVKGRFTISRDNAKNTVYLQMNRLKTEVTAVYYCAAGRAAAFGYLGQGTQVTVSS"
  polyreactivity (PSR sort gate): "high polyreactivity"
- Biopolymer Sequence: "QVQLVESGGGLVQAGGSLRLSCAASGRIFYIYAMGWYRQAPGKERELVATITGSGGGTYYADSVKGRFTISRDNAKNTVYLQMNSLKPEDTAVYYCAAQVLTDPDNYWGQGTQVTVSS"
  polyreactivity (PSR sort gate): "low polyreactivity"
- Biopolymer Sequence: "QVQLVESGGGLVQAGGSLRLSCAASGFIFGTNAMGWYRQAPGKERELVAAITSRGGSTYYADSVKGRFTISRDNAKNTVYLQMNSLKPEDTAVYYCAADKPRSYYYWGQGTQVTVSS"
  polyreactivity (PSR sort gate): "high polyreactivity"
- Biopolymer Sequence: "QVQLVESGGGLVQAGGSLRLSCAASGSIFRYYVMGWYRQAPGKERELVAAITGGGGSTYYADSVKGRFTISRDNAKNTVYLQMNSLKPEDTAVYYCATATYVGVYWEYDYWGQGTQVTVSS"
  polyreactivity (PSR sort gate): "low polyreactivity"

// data source = the nanobody polyreactivity screen of Harvey et al. (2022)
